- Tgt: PPAR-α (Homo sapiens)
- Sequence (Q07869 1-468): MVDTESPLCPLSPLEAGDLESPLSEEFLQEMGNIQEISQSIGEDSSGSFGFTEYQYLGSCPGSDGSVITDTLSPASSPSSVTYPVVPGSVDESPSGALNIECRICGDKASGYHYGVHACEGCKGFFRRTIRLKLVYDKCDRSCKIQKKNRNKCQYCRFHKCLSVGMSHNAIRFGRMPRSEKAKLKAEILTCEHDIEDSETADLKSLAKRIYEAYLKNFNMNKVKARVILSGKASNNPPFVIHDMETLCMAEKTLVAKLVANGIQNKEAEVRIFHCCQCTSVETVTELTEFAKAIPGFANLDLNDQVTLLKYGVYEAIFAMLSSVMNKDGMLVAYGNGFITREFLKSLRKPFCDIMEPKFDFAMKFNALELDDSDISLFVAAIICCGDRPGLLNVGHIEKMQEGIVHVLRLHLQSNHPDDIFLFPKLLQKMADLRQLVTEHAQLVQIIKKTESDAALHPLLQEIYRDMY
- Test name: Scintillation Proximity Assay (SPA), displacement of 3H labeled GW2331
- Format: binding
- Experimental parameters: 3H GW2331 displacement, read-out: PPAR-alpha Ki
Quantity: pKi
Here pKi is given on a logarithmic scale as minus log10 of the concentration in mol/L.

Would you please look over these solved cases?
molecule="Cc1oc(-c2ccccc2)nc1CCCOc1ccc(CC2(C(=O)O)CCCC2)cc1 [Example C-03]" test_value=5.54
molecule="Cc1cccc(-c2nc(CCOc3ccc(CC4(C(=O)O)CCC4)cc3)c(C)o2)c1 [Example C-32]" test_value=6.82
molecule="Cc1ccccc1CCOc1ccc(CC2(C(=O)O)CCCO2)cn1 (centres unmarked) [Example C-70]" test_value=5.19
molecule="Cc1oc(-c2ccccc2)nc1CCCc1ccc(CC2(C(=O)O)CCCO2)cn1 (centres unmarked) [Example C-74]" test_value=6.05
molecule="Cc1oc(-c2ccccc2)nc1CCCOc1ccc2cc(CC3(C(=O)O)CCCO3)ccc2c1 (centres unmarked) [Example C-92]" test_value=5.55
molecule="Cc1oc(-c2ccccc2)nc1COC(=O)NCc1cccc(OC(C)(C)C(=O)O)c1 [Example B-06]" test_value=6.89
molecule="Cc1oc(-c2ccccc2)nc1CCOc1cnc(CC2(C(=O)O)CCCO2)cn1 (centres unmarked) [Example C-77]" test_value=5.54

Next:
Kindly note the recorded pKi for COc1ccc(-c2nc(COc3cccc(-c4cccc(OC5(C(=O)O)CCC5)c4)c3)no2)cc1 [Example A-17] , which is 5.80

---

- Tgt: PPAR-α (Homo sapiens, UniProt Q07869)
- Test name: Scintillation Proximity Assay (SPA), displacement of 3H labeled GW2331
- Assay type: binding
- Experimental parameters: 3H GW2331 displacement, read-out: PPAR-alpha Ki
Entries are sorted into classes by Ki as follows: label 0 (below 0.03 µM), label 1 (0.03 µM to below 0.7 µM), label 2 (0.7 µM or more)

Sample answers from the record:
molecule="CN(CCOc1ccc(CC2(C(=O)O)CCCO2)cn1)c1nc2ccccc2o1 (centres unmarked) [Example C-69]" class_assignment="label 2"
molecule="Cc1oc(-c2ccc(Cl)c(Cl)c2)nc1CCOc1ccc(CC2(C(=O)O)CCC2)cc1 [Example C-25]" class_assignment="label 0"
molecule="COC(C)(Cc1ccc(OCCc2nc(-c3ccccc3)oc2C)cn1)C(=O)O [Example D-29]" class_assignment="label 2"
molecule="Cc1ccc(-c2nc(CCOc3ccc(CC4(C(=O)O)CCCO4)cn3)c(C)o2)cc1 (centres unmarked) [Example C-66]" class_assignment="label 1"
molecule="COc1cccc(-c2nc(CCOc3ccc(CC4(C(=O)O)CCCO4)cc3)c(C)o2)c1 (centres unmarked) [Example C-85]" class_assignment="label 0"

Bin this entry: Cc1oc(-c2ccccc2)nc1CCOC(=O)NCc1ccc(OC(C)(C)C(=O)O)cc1F [Example B-09]
label 2

Kindly state the category for this molecule: Cc1oc(-c2ccccc2)nc1CCCOc1cccc(-c2cccc(OC(C)(C)C(=O)O)c2)c1 [Example A-23]
label 1

For the record Cc1oc(-c2ccccc2)nc1COc1ccc2cc(CC3(C(=O)O)CCCO3)ccc2c1 (centres unmarked) [Example C-93] , report the class its Ki corresponds to.
label 1

Dear colleague, I would appreciate it if you could identify the bin for COC(Cc1ccc(OCCc2nc(-c3ccc(C#N)cc3)oc2C)nc1)C(=O)O [Example D-02] and reply at your convenience.
label 1

Just checking, what class would you give COC(Cc1ccc(OCCc2nc(-c3ccc(C)cc3)oc2C)nc1)C(=O)O [Example D-10] here?
label 1

Entry COC(Cc1ccc(OCCc2nc(-c3ccc(Cl)cc3)oc2C)nc1)C(=O)O [Example D-04] belongs to which category?
label 1

Sort Cc1ccc(-c2nc(CCOc3ccc(CC4(C(=O)O)CCCO4)cc3)c(C)o2)cc1 (centres unmarked) [Example C-83] into one of the categories.
label 0

Exercise: read the entry Cc1ccc(-c2nc(CCOc3ccc(CC4(C(=O)O)CCC4)cc3)c(C)o2)cc1 [Example C-26] and state which class it falls under.
label 0

---

- Tgt: PPAR-α (Homo sapiens, UniProt Q07869)
- Test name: Scintillation Proximity Assay (SPA), displacement of 3H labeled GW2331
- Assay type: binding
- Experimental parameters: 3H GW2331 displacement, read-out: PPAR-alpha Ki
This listing pairs compounds with measured log10 of Ki.
All values: log10 Ki [nM].

Examples with answers:
compound="Cc1oc(-c2ccccc2)nc1CCOc1ccc(CC2(C(=O)O)CCCO2)cn1 (centres unmarked)" quantity="log10 of Ki" test_value=2.38
compound="CCOC(Cc1cccc(CNC(=O)OCCCc2nc(-c3ccccc3)oc2C)c1)C(=O)O (centres unmarked)" quantity="log10 of Ki" test_value=3.43
compound=O=C(O)C1(Cc2ccc(OCCc3ccc(-c4ccc(F)cc4)cc3)cc2)CCC1 quantity="log10 of Ki" test_value=4.34

API: the following record is the query input.
Sure, the documented log10 of Ki for Cc1oc(-c2ccc(Cl)cc2)nc1CCOc1ccc(CC2(C(=O)O)CCCO2)nc1 (centres unmarked) is 2.18

---

- Tgt: PPAR-γ (Homo sapiens)
- Sequence (P37231 whole entry, species assumed): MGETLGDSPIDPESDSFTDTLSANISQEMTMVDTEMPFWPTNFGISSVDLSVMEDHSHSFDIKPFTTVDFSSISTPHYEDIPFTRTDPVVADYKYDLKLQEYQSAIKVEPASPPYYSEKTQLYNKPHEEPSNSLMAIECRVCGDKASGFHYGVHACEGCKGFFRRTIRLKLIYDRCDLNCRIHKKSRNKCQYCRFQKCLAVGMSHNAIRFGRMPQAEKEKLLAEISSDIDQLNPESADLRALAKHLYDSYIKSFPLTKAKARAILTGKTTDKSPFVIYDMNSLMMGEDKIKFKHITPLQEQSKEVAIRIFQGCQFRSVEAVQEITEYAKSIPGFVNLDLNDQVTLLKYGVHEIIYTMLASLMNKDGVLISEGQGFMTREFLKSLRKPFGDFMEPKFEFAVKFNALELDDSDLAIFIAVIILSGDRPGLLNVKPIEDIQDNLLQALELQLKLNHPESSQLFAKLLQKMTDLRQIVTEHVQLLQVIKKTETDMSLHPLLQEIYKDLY
- Test name: Scintillation Proximity Assay (SPA), displacement of 3H labeled darglitazone
- Format: binding
- Experimental parameters: 3H darglitazone displacement, read-out: PPAR-gamma Ki
pKi: −log10 of the molar value.
Param threshold (6) applies to pKi; output Met when value >= threshold, Not met when value < threshold.

Some solved entries appear below for comparison.
molecule="O=C(O)C1(Cc2ccc(OCCc3ccc(-c4ccc(F)cc4)cc3)cc2)CCC1 [Example C-07]" tgt="PPAR-γ (Homo sapiens)" class_assignment="Not met"
molecule="COc1ccc(-c2nc(COc3cccc(-c4cccc(OC5(C(=O)O)CCC5)c4)c3)no2)cc1 [Example A-17]" tgt="PPAR-γ (Homo sapiens)" class_assignment="Not met"
molecule="Cc1oc(-c2cccc(C(F)(F)F)c2)nc1CCOc1ccc(CC2(C(=O)O)CCCO2)cc1 (stereo not drawn) [Example C-87]" tgt="PPAR-γ (Homo sapiens)" class_assignment=Met

Now look at this one.
Does Cc1oc(-c2cccc(N(C)C)c2)nc1CCOc1ccc(CC2(C(=O)O)CCC2)cc1 [Example C-21] have a reported pKi of at least 6?
Met

---

- Tgt: PPAR-γ (Homo sapiens)
- Test name: Scintillation Proximity Assay (SPA), displacement of 3H labeled darglitazone
- Format: binding
- Experimental parameters: 3H darglitazone displacement, read-out: PPAR-gamma Ki
Just a reminder that ties go to class 0: only Ki strictly below 600 nM counts as class 1.

For orientation, consider the following solved cases.
compound="Cc1ccc(N2CCC(CCOc3cccc(-c4cccc(OC(C)(C)C(=O)O)c4)c3)CC2)nn1 [Example A-03]" class_assignment="class 0"
compound="COC(C)(Cc1ccc(OCCN(C)c2nc3ccccc3o2)nc1)C(=O)O [Example D-34]" class_assignment="class 0"
compound="Cc1oc(-c2ccccc2)nc1CCOc1ccc(CC2(C(=O)O)CCCC2)cn1 [Example C-46]" class_assignment="class 0"
compound="Cc1oc(-c2ccccc2)nc1COc1ccc(CC2(C(=O)O)CCC2)cc1 [Example C-17]" class_assignment="class 0"
compound="Cc1oc(-c2ccccc2)nc1CCCc1ccc(CC2(C(=O)O)CCCO2)cn1 (centres unmarked) [Example C-74]" class_assignment="class 0"

Does this compound meet the criterion Ki < 600 nM? Cc1oc(-c2cccc(F)c2)nc1CCOc1cccc(-c2cccc(OC(C)(C)C(=O)O)c2)c1 [Example A-21]
class 1

Hi there! Is Ki for CCOC(Cc1cccc(CNC(=O)OCCCc2nc(-c3ccccc3)oc2C)c1)C(=O)O (centres unmarked) [Example B-23] below 600 nM, do you know?
class 0

Decide: Ki of Cc1oc(-c2cccc(F)c2)nc1COc1cccc(-c2cccc(OC3(C(=O)O)CCC3)c2)c1 [Example A-11] strictly below 600 nM?
class 1

hey, is Ki for Cc1oc(-c2ccccc2)nc1CCOc1ccc2cc(CC3(C(=O)O)CCCO3)ccc2c1 (centres unmarked) [Example C-91] lower than 600 nM or not?
class 1

Identify whether the compound COC(C)(Cc1ccc(OCCc2nc(C(C)C)oc2C)nc1)C(=O)O [Example D-38] records Ki below 600 nM.
class 0

Would you kindly verify if Ki of COc1ccc(-c2nc(CCOc3ccc(CC(OC)C(=O)O)cn3)c(C)o2)cc1 [Example D-07] is strictly less than 600 nM?
class 1

Determine whether this compound shows Ki lower than 600 nM (ties excluded): COc1cccc(-c2nc(CCOc3ccc(CC(OC)C(=O)O)cn3)c(C)o2)c1 [Example D-08]
class 1

Regarding CCOC(Cc1ccc(OCCc2nc(-c3ccc(Cl)cc3)oc2C)nc1)C(=O)O [Example D-15] , kindly confirm whether its Ki is beneath 600 nM.
class 1

Determine if CCS(=O)(=O)Oc1ccc(CCOc2ccc(CC(OC)C(=O)O)cn2)cc1 [Example D-11] shows Ki strictly lower than 600 nM.
class 0

The reported numbers originate from patent US20050234066A1.
